Documented GI50 across a set of compounds
System: SNB-19 CNS
assay notes: NCI tumour cell line growth inhibition, 48 h

| compound | system | GI50 |
| --- | --- | --- |
| Cc1ccc2c(n1)C(=O)C(Cl)=C(Nc1ccc(N3CCN(C)CC3)cc1)C2=O | SNB-19 CNS | 9.46 µM |
| CC(=O)Nc1cc(C(c2ccccc2)c2ccccc2)cc(C(c2ccccc2)c2ccccc2)c1C | SNB-19 CNS | > 100 µM |
| O=C1NC(=O)C(N2CCc3ccccc32)=C1c1ccc(Cl)cc1 | SNB-19 CNS | > 25 µM |
| CCc1ccc(Oc2nccc(-c3c(-c4ccc(F)cc4)ncn3C3CCNCC3)n2)cc1 | SNB-19 CNS | 7.84 µM |
| CC(N)CN.CC(N)CN.[Cl-].[O]=[Os+2]=[O] (stereo not given) | SNB-19 CNS | > 100 µM |
| COc1ccccc1N(C(C)=O)C1=C(Cl)C(=O)c2ccccc2C1=O | SNB-19 CNS | 3.16 µM |
| O=Cc1c[nH]c2ccc(-c3csc4ccccc34)cc12 | SNB-19 CNS | 5.98 µM |
| CCN1CCN(CC(=O)Nc2nc3ccc(NCc4ccc(C)cc4)cc3s2)CC1 | SNB-19 CNS | 5.98 µM |
| COc1ccc(C2=NNC(c3cc(Cc4ccc(O)c(C5CC(c6ccc(OC)cc6)=NN5)c4)ccc3O)C2)cc1 (stereo not given) | SNB-19 CNS | 6.89 µM |
| Nc1cccc2c1CN(C1CCC(=O)NC1=O)C2=O (stereo not given) | SNB-19 CNS | > 100 µM |
